- Test system: TE-15 (Esophageal Squamous Cell Carcinoma)
- assay summary: combination Emax (second highest fraction inhibited in the dose matrix, 72 h); higher = more inhibition; extreme values may be limits of the assay
quantity kind: combination Emax
Answer with the value's number alone.

Here is how some molecules turned out for combination Emax.
- molecule: "CS(=O)(=O)CCNCc1ccc(-c2ccc3ncnc(Nc4ccc(OCc5cccc(F)c5)c(Cl)c4)c3c2)o1 [Lapatinib] + C[C@@H](Oc1cc(-c2cnn(C3CCNCC3)c2)cnc1N)c1c(Cl)ccc(F)c1Cl [Crizotinib] (first compound max 10 µM, 7x7, partner max 10 µM)"
  readout value: 0.906
- molecule: "CN(C)CCCOc1ccc(-c2ccc3ncc4c(c3c2)n(C2CCOCC2)c(=O)n4C)cn1 [AZD0156] + O=C(c1cc(Cc2n[nH]c(=O)c3ccccc23)ccc1F)N1CCN(C(=O)C2CC2)CC1 [Olaparib] (first compound max 3 µM, partner max 3 µM)"
  readout value: 0.253
- molecule: "Cn1cnc2c(F)c(Nc3ccc(Br)cc3Cl)c(C(=O)NOCCO)cc21 [Selumetinib] + CCN(CCO)CCCOc1ccc2c(Nc3cc(CC(=O)Nc4cccc(F)c4)[nH]n3)ncnc2c1 [AZD2811] (first compound max 10 µM, 7x7, partner max 1 µM)"
  readout value: 0.492

Next, consider the following molecule.
Inquiry: What is its combination Emax for TE-15 (Esophageal Squamous Cell Carcinoma)? Entry: Cc1cc2ncnn2cc1Nc1ncc2c(n1)n(C1CCOCC1)c(=O)n2C [AZD7648] + C=CCn1c(=O)c2cnc(Nc3ccc(N4CCN(C)CC4)cc3)nc2n1-c1cccc(C(C)(C)O)n1 [AZD1775] (first compound max 10 µM, partner max 1 µM)
Reply text: 0.565

###

combination Emax reference
- Test system: LU-135 (Small Cell Lung Carcinoma)
- assay summary: combination Emax (second highest fraction inhibited in the dose matrix, 72 h); higher = more inhibition; extreme values may be limits of the assay
Answer with the value's number alone.

Here is how some compounds turned out for combination Emax.
- compound: "CN(CCO)CC[C@H](CSc1ccccc1)Nc1ccc(S(=O)(=O)NC(=O)c2ccc(N3CCC([C@@H](O)c4ccccc4-c4ccc(Cl)cc4)CC3)cc2)cc1S(=O)(=O)C(F)(F)F [AZD4320] + Cn1cnc2c(F)c(Nc3ccc(Br)cc3Cl)c(C(=O)NOCCO)cc21 [Selumetinib] (first compound max 1 µM, 7x7, partner max 3 µM)"
  combination Emax: 1
- compound: "CN(CCO)CC[C@H](CSc1ccccc1)Nc1ccc(S(=O)(=O)NC(=O)c2ccc(N3CCC([C@@H](O)c4ccccc4-c4ccc(Cl)cc4)CC3)cc2)cc1S(=O)(=O)C(F)(F)F [AZD4320] + CCN(CCO)CCCOc1ccc2c(Nc3cc(CC(=O)Nc4cccc(F)c4)[nH]n3)ncnc2c1 [AZD2811] (first compound max 1 µM, 7x7, partner max 1 µM)"
  combination Emax: 1

Next, consider the following compound.
Inquiry: What is its combination Emax for LU-135 (Small Cell Lung Carcinoma)? Entry: CCc1c2c(nc3ccc(O)cc13)-c1cc3c(c(=O)n1C2)COC(=O)[C@]3(O)CC [SN-38] + CN(C)CCCOc1ccc(-c2ccc3ncc4c(c3c2)n(C2CCOCC2)c(=O)n4C)cn1 [AZD0156] (first compound max 0.3 µM, 7x7, partner max 1 µM)
Reply text: 0.728

###

- System: CAL-148 (Breast Carcinoma);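 further: after 72 h of two-drug dosing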
- assay summary: Bliss excess, mean over the matrix (fraction); higher = more synergy
Bliss excess reference
Answer with the value's number alone.

Here is how some compounds turned out for Bliss excess.
- compound: "Cc1c2c(nn1C)CSCc1cc(n(C)n1)CSc1cc(c3ccccc3c1)OCCCc1c(C(=O)O)n(C)c3c-2c(Cl)ccc13 [AZD5991] + CC(=O)O[C@H]1C(=O)[C@@]2(C)[C@H]([C@H](OC(=O)c3ccccc3)[C@]3(O)C[C@H](OC(=O)[C@H](O)[C@@H](NC(=O)c4ccccc4)c4ccccc4)C(C)=C1C3(C)C)[C@]1(OC(C)=O)CO[C@@H]1C[C@@H]2O [Paclitaxel] (first compound max 1 µM, 7x7, partner max 3 µM)"
  Bliss excess: 0.0436
- compound: "NC1(C(=O)N[C@@H](CCO)c2ccc(Cl)cc2)CCN(c2ncnc3[nH]ccc23)CC1 [Capivasertib] + COc1nnc2ccc(N3CCC(c4ccc(OCCN5CCN(C)C(=O)[C@H]5C)cc4)CC3)nn12 [AZD5153] (first compound max 10 µM, 7x7, partner max 1 µM)"
  Bliss excess: 0.0504

Inquiry: What is its Bliss excess for CAL-148 (Breast Carcinoma)? Entry: C[C@@H]1COCCN1c1cc(C2([S@](C)(=N)=O)CC2)nc(-c2ccnc3[nH]ccc23)n1 [AZD6738] + O=C(c1cc(Cc2n[nH]c(=O)c3ccccc23)ccc1F)N1CCN(C(=O)C2CC2)CC1 [Olaparib] (first compound max 10 µM, 7x7, partner max 10 µM)
Reply text: 0.0123

###

- System: T98G (Glioblastoma)
- assay summary: combination Emax (second highest fraction inhibited in the dose matrix, 72 h); higher = more inhibition; extreme values may be limits of the assay
combination Emax reference
Answer with the value's number alone.

Here is how some molecules turned out for combination Emax.
- molecule: "COc1nnc2ccc(N3CCC(c4ccc(OCCN5CCN(C)C(=O)[C@H]5C)cc4)CC3)nn12 [AZD5153] + Cc1c2c(nn1C)CSCc1cc(n(C)n1)CSc1cc(c3ccccc3c1)OCCCc1c(C(=O)O)n(C)c3c-2c(Cl)ccc13 [AZD5991] (first compound max 1 µM, 7x7, partner max 1 µM)"
  combination Emax: 0.459
- molecule: "Cc1c2c(nn1C)CSCc1cc(n(C)n1)CSc1cc(c3ccccc3c1)OCCCc1c(C(=O)O)n(C)c3c-2c(Cl)ccc13 [AZD5991] + CC1(C)CCC(CN2CCN(c3ccc(C(=O)NS(=O)(=O)c4ccc(NCC5CCOCC5)c([N+](=O)[O-])c4)c(Oc4cnc5[nH]ccc5c4)c3)CC2)=C(c2ccc(Cl)cc2)C1 [Venetoclax] (first compound max 1 µM, 7x7, partner max 1 µM)"
  combination Emax: 0.283
- molecule: "CN(CCO)CC[C@H](CSc1ccccc1)Nc1ccc(S(=O)(=O)NC(=O)c2ccc(N3CCC([C@@H](O)c4ccccc4-c4ccc(Cl)cc4)CC3)cc2)cc1S(=O)(=O)C(F)(F)F [AZD4320] + C[C@@H](Nc1cc(F)cc(F)c1)c1cc(C(=O)N(C)C)cc2c(=O)cc(N3CCOCC3)oc12 [AZD8186] (first compound max 1 µM, 7x7, partner max 3 µM)"
  combination Emax: 0.482
- molecule: "C=CCn1c(=O)c2cnc(Nc3ccc(N4CCN(C)CC4)cc3)nc2n1-c1cccc(C(C)(C)O)n1 [AZD1775] + C[C@@H]1COCCN1C2=NC(=NC(=C2)C3(CC3)[S@](=N)(=O)C)C4=C5C=CNC5=NC=C4 [AZD6738] (first compound max 1 µM, partner max 10 µM)"
  combination Emax: 0.873
- molecule: "CCN(CCO)CCCOc1ccc2c(Nc3cc(CC(=O)Nc4cccc(F)c4)[nH]n3)ncnc2c1 [AZD2811] + O=C(c1cc(Cc2n[nH]c(=O)c3ccccc23)ccc1F)N1CCN(C(=O)C2CC2)CC1 [Olaparib] (first compound max 1 µM, 7x7, partner max 10 µM)"
  combination Emax: 0.453

Inquiry: Request the reported combination Emax associated with C=CCn1c(=O)c2cnc(Nc3ccc(N4CCN(C)CC4)cc3)nc2n1-c1cccc(C(C)(C)O)n1 [AZD1775] + O=C(c1cc(Cc2n[nH]c(=O)c3ccccc23)ccc1F)N1CCN(C(=O)C2CC2)CC1 [Olaparib] (first compound max 1 µM, partner max 10 µM)
Reply text: 0.675

###

combination Emax reference
- System: Hs-578-T (Breast Carcinoma)
- assay summary: combination Emax (second highest fraction inhibited in the dose matrix, 72 h); higher = more inhibition; extreme values may be limits of the assay
Answer with the value's number alone.

Here is how some molecules turned out for combination Emax.
- molecule: "CC1(C)CCC(CN2CCN(c3ccc(C(=O)NS(=O)(=O)c4ccc(NCC5CCOCC5)c([N+](=O)[O-])c4)c(Oc4cnc5[nH]ccc5c4)c3)CC2)=C(c2ccc(Cl)cc2)C1 [Venetoclax] + Cc1cc2ncnn2cc1Nc1ncc2c(n1)n(C1CCOCC1)c(=O)n2C [AZD7648] (first compound max 1 µM, 7x7, partner max 10 µM)"
  measured on: "Hs-578-T (Breast Carcinoma)"
  combination Emax: 0.831
- molecule: "COc1cc2c(cc1OCCCCCOc1cc3c(cc1OC)C(=O)N1C=C(C)C[C@H]1C=N3)N=C[C@@H]1CC(C)=CN1C2=O [SG3199] + O=C(c1cc(Cc2n[nH]c(=O)c3ccccc23)ccc1F)N1CCN(C(=O)C2CC2)CC1 [Olaparib] (first compound max 0.001 µM, 7x7, partner max 10 µM)"
  measured on: "Hs-578-T (Breast Carcinoma)"
  combination Emax: 0.256

Inquiry: Request the reported combination Emax associated with Cc1cc2ncnn2cc1Nc1ncc2c(n1)n(C1CCOCC1)c(=O)n2C [AZD7648] + CCN(CCO)CCCOc1ccc2c(Nc3cc(CC(=O)Nc4cccc(F)c4)[nH]n3)ncnc2c1 [AZD2811] (first compound max 10 µM, 7x7, partner max 1 µM)
Reply text: 0.623

Inquiry: Then COc1cccc(OCCCN)c1-c1cc(Nc2cnc(C#N)cn2)n[nH]1 [Prexasertib] + CN(C)CCCOc1ccc(-c2ccc3ncc4c(c3c2)n(C2CCOCC2)c(=O)n4C)cn1 [AZD0156] (first compound max 1 µM, 7x7, partner max 1 µM) ?
Reply text: 0.942
